- Assay Comment: DPH probe fluorescence anisotropy in RBCM liposomes
- Design: species or system human
- Settings: RBCM, 10 µM; negative = increase in anisotropy
Measured Changes in DPH anisotropy relative to the control accompanies every entry in the list below.
Give just the numeric value; % need not be written.

Consider the molecule Oc1cc(O)c2cc(O)c(-c3cc(O)c(O)c(O)c3)[o+]c2c1 [Dp, Delphinidin] and give its measured Changes in DPH anisotropy relative to the control. -6.55

Fill in: Changes in DPH anisotropy relative to the control of OCC1OC(Oc2cc3c(O)cc(O)cc3[o+]c2-c2cc(O)c(O)c(O)c2)C(O)C(O)C1O (centres unmarked) [Dp 3-glc, Delphinidin 3-O-glucoside] is ___ -6.03

If you can, please state the reported Changes in DPH anisotropy relative to the control value of COc1cc(-c2[o+]c3cc(O)cc(O)c3cc2O)cc(O)c1O [Pt, Petunidin] . -10.18

Consider the molecule shown here: COc1cc(-c2[o+]c3cc(O)cc(O)c3cc2OC2OC(CO)C(O)C(O)C2O)cc(O)c1O (centres unmarked) [Pt 3-glc, Petunidin 3-O-glucoside] What is its recorded Changes in DPH anisotropy relative to the control? -7.11

Look up Changes in DPH anisotropy relative to the control for this molecule: COc1cc(-c2[o+]c3cc(O)cc(O)c3cc2OC2OC(CO)C(O)C(O)C2O)ccc1O (centres unmarked) [Pn 3-glc, Peonidin 3-O-glucoside] -2.02

====

- Assay Comment: MC540 probe fluorescence intensity in RBCM liposomes
- Design: species or system human
- Settings: 1 µM, 37 °C, positive = decrease
Parameter: Changes in MC540 fluorescence intensity relative to the control (%)
Numeric answer only, unit % assumed.

What value of Changes in MC540 fluorescence intensity relative to the control has been recorded for this entry: `COc1cc(-c2[o+]c3cc(O)cc(O)c3cc2O)cc(O)c1O` 16.68

Endpoint output: Changes in MC540 fluorescence intensity relative to the control of COc1cc(-c2[o+]c3cc(O)cc(O)c3cc2OC2OC(CO)C(O)C(O)C2O)ccc1O (centres unmarked) [Pn 3-glc, Peonidin 3-O-glucoside] . Value? 16.40

May I ask what Changes in MC540 fluorescence intensity relative to the control has been recorded for `Oc1cc(O)c2cc(O)c(-c3cc(O)c(O)c(O)c3)[o+]c2c1` ? 19.22

Sample COc1cc(-c2[o+]c3cc(O)cc(O)c3cc2OC2OC(CO)C(O)C(O)C2O)cc(O)c1O (centres unmarked) [Pt 3-glc, Petunidin 3-O-glucoside] — what was its Changes in MC540 fluorescence intensity relative to the control? 13.68

GET /values?readout=Changes in MC540 fluorescence intensity relative to the control&item= OCC1OC(Oc2cc3c(O)cc(O)cc3[o+]c2-c2cc(O)c(O)c(O)c2)C(O)C(O)C1O (centres unmarked) [Dp 3-glc, Delphinidin 3-O-glucoside] 11.73

====

Recorded Changes in MC540 fluorescence intensity relative to the control values for a group of compounds are listed next.
- Assay Comment: MC540 probe fluorescence intensity in RBCM liposomes
- Design: species or system human
- Settings: 5 µM, 37 °C, positive = decrease

Example entries begin here.
COc1cc(-c2[o+]c3cc(O)cc(O)c3cc2O)cc(O)c1O: 32.60±0.15%
COc1cc(-c2[o+]c3cc(O)cc(O)c3cc2OC2OC(CO)C(O)C(O)C2O)ccc1O (stereo not shown) [Pn 3-glc, Peonidin 3-O-glucoside]: 20.98±1.80%
OCC1OC(Oc2cc3c(O)cc(O)cc3[o+]c2-c2cc(O)c(O)c(O)c2)C(O)C(O)C1O (stereo not shown) [Dp 3-glc, Delphinidin 3-O-glucoside]: 17.29±0.54%

Read the next record carefully.
Fill in: Changes in MC540 fluorescence intensity relative to the control of `Oc1cc(O)c2cc(O)c(-c3cc(O)c(O)c(O)c3)[o+]c2c1` is ___ 30.39±0.90%
